TESTED ON: A disintegrin and metalloproteinase with thrombospondin motifs 4 (Homo sapiens, UniProt O75173)
Sequence (O75173 whole entry): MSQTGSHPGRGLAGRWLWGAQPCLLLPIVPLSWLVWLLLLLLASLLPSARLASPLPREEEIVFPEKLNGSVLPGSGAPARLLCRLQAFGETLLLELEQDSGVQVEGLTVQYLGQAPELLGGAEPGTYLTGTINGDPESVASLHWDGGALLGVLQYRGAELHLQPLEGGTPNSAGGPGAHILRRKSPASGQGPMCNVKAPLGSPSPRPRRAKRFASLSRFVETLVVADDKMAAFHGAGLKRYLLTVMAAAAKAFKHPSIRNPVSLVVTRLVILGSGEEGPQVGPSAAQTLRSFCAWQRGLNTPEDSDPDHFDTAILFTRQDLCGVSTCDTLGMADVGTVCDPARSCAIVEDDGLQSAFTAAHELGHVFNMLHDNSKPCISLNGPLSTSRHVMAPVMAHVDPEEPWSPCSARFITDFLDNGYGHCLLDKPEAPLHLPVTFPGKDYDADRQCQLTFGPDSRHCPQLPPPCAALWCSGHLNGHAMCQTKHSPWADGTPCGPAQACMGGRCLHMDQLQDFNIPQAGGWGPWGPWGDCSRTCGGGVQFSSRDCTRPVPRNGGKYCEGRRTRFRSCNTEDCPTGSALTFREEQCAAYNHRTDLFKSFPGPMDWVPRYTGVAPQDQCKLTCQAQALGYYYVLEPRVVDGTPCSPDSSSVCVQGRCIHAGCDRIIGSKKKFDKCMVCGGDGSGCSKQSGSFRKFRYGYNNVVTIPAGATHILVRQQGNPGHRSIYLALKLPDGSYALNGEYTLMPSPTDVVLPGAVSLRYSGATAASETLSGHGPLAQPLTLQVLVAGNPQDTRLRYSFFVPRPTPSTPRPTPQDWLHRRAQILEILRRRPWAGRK
pIC50: −log10 of the molar value.
ASSAY READOUT: pIC50

a: CC(C)[C@@H](NS(=O)(=O)c1ccc(-c2ccc(Oc3ccccc3)cc2)cc1)C(=O)O
b: CC(C)[C@@H](NS(=O)(=O)c1ccc(-c2ccc(OC(=O)NCc3ccccc3)cc2)cc1)C(=O)O
c: CC(C)[C@@H](NS(=O)(=O)c1ccc(-c2ccc(OCc3cccc(C(F)(F)F)c3)cc2)cc1)C(=O)O
Could you please order the items by pIC50, going from the lowest number to the highest? Answer by listing the labels in the order asked for.
b, a, c
(b: 4.60, a: 4.88, c: 6.51)
